Give perturbation Mahalanobis distance for every item shown.
system: MCF10A; assay: perturbation Mahalanobis distance of morphological profile vs DMSO controls (Mahalanobis distance (SD units)); higher = stronger morphological change, active = 7 or more; details: screen batch: Batch1_Mahalanobis_Distance; 72 h
Give bare numbers.

Parameter requested: perturbation Mahalanobis distance. Apply to each item below.
1. C[C@]12C=CC(=O)C=C1CC[C@@H]1[C@@H]2[C@@H](O)C[C@@]2(C)[C@H]1CC[C@]2(O)C(=O)CO [Prednisolone] (13.9 µM)
2. C#CCN(C)Cc1ccccc1 [Pargyline] (1.9 µM)
3. CCN(CC)C(=O)/C(C#N)=C/c1cc(O)c(O)c([N+](=O)[O-])c1 [Entacapone] (6.6 µM)
4. CCCCC(F)(F)[C@@]1(O)CC[C@H]2[C@@H](CC(=O)[C@@H]2CCCCCCC(=O)O)O1 [Lubiprostone] (64 µM)

### Response
1: 4.8; 2: 3.93; 3: 1.99; 4: 2.4

###

I'd be grateful if you could share measured perturbation Mahalanobis distance for these entries.
system: MCF10A; experiment: perturbation Mahalanobis distance of morphological profile vs DMSO controls (Mahalanobis distance (SD units)); higher = stronger morphological change, active = 7 or more; conditions: screen batch: Batch2_Mahalanobis_Distance; 72 h

// each listed compound needs a value for perturbation Mahalanobis distance
1. COc1cc(N)c(Cl)cc1C(=O)NC1CCN(CCCOc2ccc(F)cc2)CC1OC (centres undefined) [Cisapride] (0.85 µM)
2. C[C@](N)(Cc1ccc(O)cc1)C(=O)O [Metyrosine] (71.7 µM)
3. C[C@]12C=CC(=O)N[C@@H]1CC[C@@H]1[C@@H]2CC[C@]2(C)[C@@H](C(=O)Nc3cc(C(F)(F)F)ccc3C(F)(F)F)CC[C@@H]12 [Dutasteride] (12 µM)

### Response
1. 2.99 (inactive)
2. 3.02 (inactive)
3. 2.96 (inactive)

### Prompt Name the recorded perturbation Mahalanobis distance for CCC(CC)O[C@@H]1C=C(C(=O)O)C[C@H](N)[C@H]1NC(C)=O [Oseltamivir Acid] (6.45 µM) .
### Response 3.03 (inactive)

###

system: MCF10A; assay: perturbation Mahalanobis distance of morphological profile vs DMSO controls (Mahalanobis distance (SD units)); higher = stronger morphological change, active = 7 or more; settings: screen batch: Batch2_Mahalanobis_Distance; 72 h
Give measured perturbation Mahalanobis distance for each item. Keep answers brief.
Give bare numbers.

These solved cases illustrate the format of a correct answer.
Compound	Observation Type	Value Observed
CC1(C)O[C@@H]2[C@@H](CO[C@@]3(COS(N)(=O)=O)OC(C)(C)O[C@@H]23)O1 [Topiramate] (76.6 µM)	perturbation Mahalanobis distance	3.08
Cc1ncc([N+](=O)[O-])n1CCO [Metronidazole] (58.4 µM)	perturbation Mahalanobis distance	2.36
COc1ccccc1OCC(O)CN1CCN(CC(=O)Nc2c(C)cccc2C)CC1 (stereo not given) [Ranolazine] (37.4 µM)	perturbation Mahalanobis distance	3.08
CO[C@H]1O[C@@H]2O[C@@]3(C)CC[C@H]4[C@H](C)CC[C@@H]([C@H]1C)[C@@]24OO3 [Artemether] (3.9 µM)	perturbation Mahalanobis distance	2.48

Consider the additional compound presented here.
### Prompt perturbation Mahalanobis distance for C=CC[C@@H]1/C=C(\C)C[C@H](C)C[C@H](OC)[C@H]2O[C@@](O)(C(=O)C(=O)N3CCCC[C@H]3C(=O)O[C@H](/C(C)=C/[C@@H]3CC[C@@H](O)[C@H](OC)C3)[C@H](C)[C@@H](O)CC1=O)[C@H](C)C[C@@H]2OC [Tacrolimus] (0.09 µM) ?
### Response 2.28

Where do these numbers come from? They come from the supplement of paper PMC6853941.
